target: HLA-A*02:03; assay: IEDB peptide-MHC binding, purified MHC/competitive/radioactivity; bounds were set here for any values at or beyond the usual limits of such assays; details: source organism: Human immunodeficiency virus type 1 (isolate YU2)
ENDPOINT: IC50 (nM)

- SEQUENCE_STRING: "LVGPTPVNI"
  REPORTED_MEASUREMENT: 19.2
- SEQUENCE_STRING: "LLQLTVWGI"
  REPORTED_MEASUREMENT: 43.5
- SEQUENCE_STRING: "MASDFNLPPV"
  REPORTED_MEASUREMENT: 55.6
- SEQUENCE_STRING: "RILQQLLFI"
  REPORTED_MEASUREMENT: 125
- SEQUENCE_STRING: "MTNNPPIPV"
  REPORTED_MEASUREMENT: 33.3
- SEQUENCE_STRING: "VLAEAMSQV"
  REPORTED_MEASUREMENT: 15.2
- SEQUENCE_STRING: "AIIRILQQL"
  REPORTED_MEASUREMENT: 41.7
- SEQUENCE_STRING: "KMIGGIGGFI"
  REPORTED_MEASUREMENT: 4.8
- SEQUENCE_STRING: "KAACWWAGI"
  REPORTED_MEASUREMENT: 83.3
- SEQUENCE_STRING: "LTFGWCFKLV"
  REPORTED_MEASUREMENT: 185

====

target: HLA-A*68:02; test: IEDB peptide-MHC binding, purified MHC/competitive/radioactivity; filed as Kd, often an IC50 or EC50 that approximates it; bounds were set here for any values at or beyond the usual limits of such assays; conditions: source organism: Human immunodeficiency virus type 1 (isolate YU2)
pKd: −log10 of the molar value.
// reported pKd for each item listed
ENDPOINT: pKd

- SEQUENCE_STRING: "RILQQLLFI"
  ENDPOINT: "pKd"
  REPORTED_MEASUREMENT: 5.74
- SEQUENCE_STRING: "KMIGGIGGFI"
  ENDPOINT: "pKd"
  REPORTED_MEASUREMENT: 5.48

====

molecular target: HLA-A*02:03; test: IEDB peptide-MHC binding, purified MHC/competitive/radioactivity; bounds were set here for any values at or beyond the usual limits of such assays; details: source organism: Human immunodeficiency virus 1

- SEQUENCE_STRING: "SLLNATDIAV"
  TESTED_TARGET: "HLA-A*02:03"
  IC50: "0.238 µM"

====

biological target: HLA-A*68:02; test: IEDB peptide-MHC binding, purified MHC/competitive/radioactivity; bounds were set here for any values at or beyond the usual limits of such assays; conditions: source organism: Human immunodeficiency virus type 1 (isolate YU2)
pIC50: −log10 of the molar value.

- SEQUENCE_STRING: "MASDFNLPPV"
  TESTED_TARGET: "HLA-A*68:02"
  pIC50: 7.74
- SEQUENCE_STRING: "MTNNPPIPV"
  TESTED_TARGET: "HLA-A*68:02"
  pIC50: 7.92
- SEQUENCE_STRING: "LLQLTVWGI"
  TESTED_TARGET: "HLA-A*68:02"
  pIC50: 6.19
- SEQUENCE_STRING: "LTFGWCFKL"
  TESTED_TARGET: "HLA-A*68:02"
  pIC50: 8.25
- SEQUENCE_STRING: "AIIRILQQL"
  TESTED_TARGET: "HLA-A*68:02"
  pIC50: 6.26
- SEQUENCE_STRING: "LVGPTPVNI"
  TESTED_TARGET: "HLA-A*68:02"
  pIC50: 7.17
- SEQUENCE_STRING: "LTFGWCFKLV"
  TESTED_TARGET: "HLA-A*68:02"
  pIC50: 8.21

The reported measurements were obtained from the Immune Epitope Database (IEDB).
